experiment: chemical genetic growth profiling, strain panel (AID 1159580);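 note: tested at 20 µM; growth read once vehicle control cultures reached saturation at 30 °C; 1 = growth at the plate median or of vehicle wells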; settings: S. cerevisiae deletion strains, growth OD, locus YML094W, strain GIM5
In all, about 5,500 compounds went through this assay and about 2,000 (36%) were called active. Another 18% or so got no clear call; they are omitted. Cut-off read from the data, not from the text of the source: active = normalized growth mostly below about 0.91 (no sharp cut-off); inconclusive = no clear call, values can overlap the other calls; inactive = mostly above about 0.92. This is one part of the list.
// allowed return values: active, inactive

Here are 5 molecules together with their reported answers.
INSERT INTO measurements (molecule, class) VALUES
  ('COC(=O)Cc1cc(OC)c(OC)cc1[N+](=O)[O-]', 'inactive'),
  ('CC(C)(C)C1=CC(=O)C=C(C(C)(C)C)C1=O', 'inactive'),
  ('CSc1cc(C(F)(F)F)cc(SC)c1SC', 'inactive'),
  ('O=C(NC1CCCCC1)N1CCN(c2ncccc2C(F)(F)F)CC1', 'inactive'),
  ('Cc1onc(-c2ccccc2)c1C(=O)On1c(-c2ccccc2)nc2ccccc2c1=O', 'inactive');

### Prompt Tell me the recorded outcome of this test for COc1ccccc1N1CCN(C(=O)C(C)Nc2ccccn2)CC1 (stereo not given) .
### Response inactive

### Prompt I'd appreciate the recorded outcome for c1ccc(-c2ncc3ccccn23)cc1 from this test.
### Response inactive

### Prompt How was Clc1ccc2ocnc2c1 classified in this test?
### Response inactive

### Prompt Hi, sorry to bother you, what did the test record for CN(C)/C=C1\CSc2ccc(F)cc2C1=O ?
### Response active

### Prompt Per the records of this test, what outcome belongs to O=C1c2ccccc2C(=O)N1CN1CCC(O)(c2ccc(Cl)cc2)CC1 ?
### Response inactive

### Prompt Could you check what this test reported for CC1CC(=O)Nc2ccccc2N1C(=O)c1ccc([N+](=O)[O-])cc1 (stereo not given) ?
### Response inactive

====

Below is a list of entries, each paired with its recorded normalized growth value.
experiment: chemical genetic growth profiling, strain panel (AID 1159580); details: S. cerevisiae deletion strains, growth OD, locus YBL061C, strain skt5, stronger effect = lower value
The whole screen tested about 5,500 compounds, of which about 2,000 (36%) were called active. Not shown: some 18% with an inconclusive outcome. The list shows a part of the results.
Hey, just send me the number, nothing else.

As a guide, the following entries are already answered.
INSERT INTO results (compound, result) VALUES
  ('COc1nc(NC(C)C)nc(NC(C)C)n1', 1.03),
  ('COC1C(O)C(O[C@H]2CC[C@]3(C=O)C4C(CC[C@]3(O)C2)[C@@]2(O)CC[C@H](C3=CC(=O)OC3)[C@@]2(C)C[C@H]4OC(C)=O)OC(C)C1OC(C)=O (some centres undefined)', 1.02);

### Prompt Reported normalized growth for C[C@H]1[C@H](C)CC[C@]2(C(=O)O)CC[C@]3(C)C(=CCC4[C@@]5(C)C[C@@H](O)[C@H](O)[C@@](C)(CO)C5CC[C@]43C)[C@H]12 (some centres undefined) : what is it?
### Response 1.01

====

assay: chemical genetic growth profiling, strain panel (AID 1159580); conditions: S. cerevisiae deletion strains, growth OD, locus YKR091W, strain srl3, stronger effect = lower value
Hit rate of the full screen: of about 5,500 compounds, about 2,000 (36%) were called active. Not shown: some 18% with an inconclusive outcome. The list shows a part of the results.
measure name: normalized growth

### Prompt Quick check: normalized growth of CN(C)CC[C@H](c1ccc(Cl)cc1)c1ccccn1 ?
### Response 1.01 (inactive)

====

// reported normalized growth per item
test: chemical genetic growth profiling, strain panel (AID 1159580); settings: S. cerevisiae deletion strains, growth OD, locus YLR357W, strain rsc2, stronger effect = lower value
Out of some 5,500 compounds screened, about 2,000 (36%) were called active. About 18% were inconclusive and are not listed. Some of the results follow.

INSERT INTO results (compound, measure_name, result) VALUES
  ('COc1cc(O)c2c(=O)cc(-c3ccc(OC)c(-c4c(O)cc(O)c5c(=O)cc(-c6ccc(O)cc6)oc45)c3)oc2c1', 'normalized growth', '0.985 (inactive)'),
  ('C[C@@H]1CC[C@@]23CCC4(C)[C@@](C=CC5[C@@]6(C)CC[C@H](O)C(C)(C)C6CC[C@]54C)(OC2=O)C3[C@H]1C (some centres not stated)', 'normalized growth', '1.07 (inactive)'),
  ('CC1(C)S[C@@H]2C(N3C(=O)[C@@H](c4ccccc4)NC3(C)C)C(=O)N2[C@H]1C(=O)O (some centres not stated)', 'normalized growth', '1.01 (inactive)'),
  ('COc1ccccc1N1CCN(CCCNc2cc(=O)n(C)c(=O)n2C)CC1', 'normalized growth', '1.03 (inactive)'),
  ('CC1(C)S[C@@H]2[C@H](NC(=O)[C@@H](N)c3ccc(O)cc3)C(=O)N2[C@H]1C(=O)O', 'normalized growth', '1.02 (inactive)'),
  ('CC1(C)C(O)CC(=O)C2(C)C1CC(O)C1(C)C2CCC2(C)C(c3ccoc3)OC(=O)C3OC321 (configuration not stated)', 'normalized growth', '0.99 (inactive)');

### Prompt So what does the record say about normalized growth for CC(=O)OCC(=O)[C@@]1(O)CCC2C3C[C@H](C)C4=CC(=O)C=CC4(C)C3[C@@H](O)CC21C (some centres not stated) ?
### Response 1.03 (inactive)

### Prompt Consider the compound Nc1ccc(S(=O)(=O)Nc2ncccn2)cc1 and give its measured normalized growth.
### Response 0.939 (inactive)

### Prompt Any idea what its normalized growth is? The compound is COc1cc2c(cc1OC)-c1c(oc3cc(O)cc(O)c3c1=O)CO2
### Response 1.01 (inactive)

### Prompt What normalized growth value was documented for this compound, CCCc1nc(C)c2c(=O)[nH]c(-c3cc(S(=O)(=O)N4CCN(CC)CC4)ccc3OCC)nn12 ?
### Response 0.937 (inactive)

### Prompt Given the entry O=S(=O)(O)O , report its measured normalized growth.
### Response 0.951 (inactive)

### Prompt Reported normalized growth, compound COc1ccc(-c2cc(=O)c3c(O)cc(O)c(-c4cc(-c5cc(=O)c6c(O)cc(O)cc6o5)ccc4OC)c3o2)cc1 : ____
### Response 0.973 (inactive)

====

assay: chemical genetic growth profiling, strain panel (AID 1159580);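 note: tested at 20 µM; growth read once vehicle control cultures reached saturation at 30 °C; 1 = growth at the plate median or of vehicle wells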; conditions: S. cerevisiae deletion strains, growth OD, locus YPL241C, strain CIN2, stronger effect = lower value
Hit rate of the full screen: of about 5,500 compounds, about 2,000 (36%) were called active. Not shown: some 18% with an inconclusive outcome. Some of the results follow.
Exam item: assign t to entries whose normalized growth is below 1 and f to entries at or above 1. Note that a value of exactly 1 receives f.

INSERT INTO results (compound, class) VALUES
  ('COc1ccccc1NC(=S)NCCC(=O)O', 'f');

### Prompt Please indicate whether the reported normalized growth of Cc1ccc(Sc2nc(C)c([N+](=O)[O-])c(C)c2C#N)cc1 is strictly below 1.
### Response f

### Prompt Below 1 on normalized growth? Entry NC(=S)CS(=O)(=O)c1ccc(C(F)(F)F)cc1
### Response f

====

experiment: chemical genetic growth profiling, strain panel (AID 1159580);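 note: tested at 20 µM; growth read once vehicle control cultures reached saturation at 30 °C; 1 = growth at the plate median or of vehicle wells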; settings: S. cerevisiae deletion strains, growth OD, locus YBL105C, strain PKC1
Hit rate of the full screen: of about 5,500 compounds, about 2,000 (36%) were called active. Another 18% or so got no clear call; they are omitted. Cut-off read from the data, not from the text of the source: active = normalized growth mostly below about 0.91 (no sharp cut-off); inconclusive = no clear call, values can overlap the other calls; inactive = mostly above about 0.92. The list shows a part of the results.
Form entry, call: pick from true for active, false for inactive

Check out these entries, answers already filled in.
INSERT INTO assay_data (structure_smiles, class) VALUES
  ('N/C(=N/OC(=O)c1cnn(-c2ccc([N+](=O)[O-])cc2)c1C(F)(F)F)c1ccc(Cl)cc1', 'false'),
  ('O=C(Nc1ccc(SC(F)(F)F)cc1)Nc1ccc(Oc2cccc(C(F)(F)F)c2)nc1', 'false'),
  ('N#Cc1ccc2[nH]cc(CCN(Cc3ccccc3)Cc3ccccc3)c2c1', 'false'),
  ('O=C1OC(c2ccccc2)=C/C1=C/c1ccccc1', 'false'),
  ('O=C(NNc1cc(C(F)(F)F)cc(C(F)(F)F)c1)c1cnc2n(c1=O)CCS2', 'false'),
  ('O=C(NC(=S)NNc1ncc(C(F)(F)F)cc1Cl)c1cccs1', 'true'),
  ('O=C(Nc1cc2ccccc2s1)N1CCN(Cc2c(F)cccc2Cl)CC1', 'false'),
  ('Cc1cc(-c2onc(C)c2C(=O)Sc2ccccc2)no1', 'false'),
  ('CC1(C)C=Cc2cc(/C(N)=N\OC(=O)Nc3cccc(C(F)(F)F)c3)ccc2O1', 'false');

### Prompt Which outcome was entered for the molecule O=C(O/N=C1/CCCc2[nH]c3ccccc3c21)C1CCCCC1 in this test?
### Response false

====

test: chemical genetic growth profiling, strain panel (AID 1159580);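 note: tested at 20 µM; growth read once vehicle control cultures reached saturation at 30 °C; 1 = growth at the plate median or of vehicle wells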; details: S. cerevisiae deletion strains, growth OD, locus YLR320W, strain mms22, stronger effect = lower value
Hit rate of the full screen: of about 5,500 compounds, about 2,000 (36%) were called active. Another 18% or so got no clear call; they are omitted. The list shows a part of the results.
Decision: normalized growth beneath 1 gives Fulfilled; normalized growth meeting or exceeding 1 gives Not fulfilled.

Recorded results for 5 compounds are shown here.
INSERT INTO measurements (compound, class) VALUES
  ('C[C@H]1O[C@@H](O[C@H]2[C@@H](O)C[C@H](O[C@H]3[C@@H](O)C[C@H](O[C@H]4CC[C@]5(C)C6C[C@@H](O)[C@]7(C)[C@@H](C8=CC(=O)OC8)CC[C@]7(O)C6CC[C@@H]5C4)O[C@@H]3C)O[C@@H]2C)C[C@H](O)[C@@H]1O (stereo not given in full)', 'Fulfilled'),
  ('Cc1c(C(N)=O)cc([N+](=O)[O-])cc1[N+](=O)[O-]', 'Not fulfilled'),
  ('C[C@]12CCC3C(CC[C@]4(O)C[C@@H](O)CC[C@]34C=O)[C@@]1(O)CCC2C1=CC(=O)OC1 (stereo not given in full)', 'Not fulfilled'),
  ('CN(C)C(=O)C(CCN1CCC(O)(c2ccc(Cl)cc2)CC1)(c1ccccc1)c1ccccc1', 'Fulfilled'),
  ('C[C@H]1O[C@@H](O[C@H]2[C@@H](O)C[C@H](O[C@H]3[C@@H](O)C[C@H](O[C@H]4CC[C@]5(C)C6CC[C@]7(C)[C@@H](C8=CC(=O)OC8)CC[C@]7(O)C6CC[C@@H]5C4)O[C@@H]3C)O[C@@H]2C)C[C@H](O)[C@@H]1O (stereo not given in full)', 'Fulfilled');

Here's the next entry for you.
### Prompt In the record for COC1CC(O[C@H]2CC[C@]3(C=O)C4CC[C@]5(C)C(C6=CC(=O)OC6)CC[C@]5(O)C4CC[C@]3(O)C2)OC(C)C1O (stereo not given in full) , is normalized growth less than 1?
### Response Not fulfilled

Source of measurements: PubChem BioAssay AID1159580
